Tested on: VCAM-1 mRNA
Test: TNF-α-induced VCAM-1 mRNA, Northern blot
Format: cell-based, human
Conditions: 48 hrs recovery, TNF-α two to three hours before RNA analysis
Quick list: % mRNA Expression (VCAM-1) per entry.
Just the number please, in %, no unit attached.

1) ToCoCoCoGoCsCsTsGsTsGsAsCsAsToGoCoAoToT [ISIS 12854] : 35

// lookup % mRNA Expression (VCAM-1) for ToCoCsGsTsCsAsTsCsGsCsTsCoCoToCoAoGoGoG [ISIS 15168]
29

Would you kindly repeat that for AoToGoCoAoTsTsCsTsGsCsCsCsCsCoAoAoGoGoA [ISIS 15727, reference compound] ?
113

Now give it for ToCoAsGsTsAsAsTsAsGsCsCsCoCoAoCoAoToGoG [ISIS 17552, reference compound] too.
111

---

In this section, each of the substances is paired with its reported % Cell Surface Expression (E-selectin).
Test system: E-selectin
Experiment: TNF-α-induced E-selectin cell surface expression in HMVEC, flow cytometry
Type: cell-based, human
Details: 150 nM, TNF-α for 5 hours, % of control
State just the number; it will be interpreted in %.

# count of solved cases: 3
1) ToCoCoCoGoCsCsTsGsTsGsAsCsAsToGoCoAoToT [ISIS 12854] : 23
2) ToCoCsGsTsCsAsTsCsGsCsTsCoCoToCoAoGoGoG [ISIS 15168] : 41
3) ToCoAsGsTsAsAsTsAsGsCsCsCoCoAoCoAoToGoG [ISIS 17552, reference compound] : 116

Consider now this further substance.
Look up % Cell Surface Expression (E-selectin) with E-selectin for this substance: AoToGoCoAoTsTsCsTsGsCsCsCsCsCoAoAoGoGoA [ISIS 15727, reference compound]
106

---

Test system: E-selectin
Assay: TNF-α-induced E-selectin cell surface expression in HMVEC, flow cytometry
Assay type: cell-based, human
Settings: 75 nM, TNF-α for 5 hours, % of control
measurement_type: % Cell Surface Expression (E-selectin) (%)
Value expressed in %; do not type the unit.

Before answering, review these 2 worked examples.
1. AoToGoCoAoTsTsCsTsGsCsCsCsCsCoAoAoGoGoA [ISIS 15727, reference compound] : 94
2. ToCoCsGsTsCsAsTsCsGsCsTsCoCoToCoAoGoGoG [ISIS 15168] : 47

Item under review: ToCoAsGsTsAsAsTsAsGsCsCsCoCoAoCoAoToGoG [ISIS 17552, reference compound] . Reported % Cell Surface Expression (E-selectin)?
116

Okay, and ToCoCoCoGoCsCsTsGsTsGsAsCsAsToGoCoAoToT [ISIS 12854] ?
26

---

Tested on: E-selectin
Experiment: TNF-α-induced E-selectin cell surface expression in HMVEC, flow cytometry
Format: cell-based, human
Conditions: time course, 48 h after oligonucleotide treatment, TNF-α 5 hours
measurement_type: % Cell Surface Expression (E-selectin)
Answer by giving the amount and then stating its unit.

As a guide, the following entries are already answered.
1. ToCoCsGsTsCsAsTsCsGsCsTsCoCoToCoAoGoGoG [ISIS 15168] : 42%
2. AoToGoCoAoTsTsCsTsGsCsCsCsCsCoAoAoGoGoA [ISIS 15727, reference compound] : 106%
3. GsAsAsGsTsCsAsGsCsCsAsAsGsAsAsCsAsGsCsT (GAAGTCAGCCAAGAACAGCT; all phosphorothioate, sugars by position and methylation of C not given here) [ISIS 11928, fully phosphorothioated oligonucleotide with all 2'-methoxyethoxy nucleotides except a 3' terminal 2'-deoxy nucleotide, antisense to E-selectin] : 29%
4. ToCoAsGsTsAsAsTsAsGsCsCsCoCoAoCoAoToGoG [ISIS 17552, reference compound] : 116%

Please turn your attention to the following entry.
Given the entry ToCoCoCoGoCsCsTsGsTsGsAsCsAsToGoCoAoToT [ISIS 12854] , report its measured % Cell Surface Expression (E-selectin).
23%
